- study.system: dopamine D2 receptor (Mus musculus)
- Sequence (P61168 whole entry): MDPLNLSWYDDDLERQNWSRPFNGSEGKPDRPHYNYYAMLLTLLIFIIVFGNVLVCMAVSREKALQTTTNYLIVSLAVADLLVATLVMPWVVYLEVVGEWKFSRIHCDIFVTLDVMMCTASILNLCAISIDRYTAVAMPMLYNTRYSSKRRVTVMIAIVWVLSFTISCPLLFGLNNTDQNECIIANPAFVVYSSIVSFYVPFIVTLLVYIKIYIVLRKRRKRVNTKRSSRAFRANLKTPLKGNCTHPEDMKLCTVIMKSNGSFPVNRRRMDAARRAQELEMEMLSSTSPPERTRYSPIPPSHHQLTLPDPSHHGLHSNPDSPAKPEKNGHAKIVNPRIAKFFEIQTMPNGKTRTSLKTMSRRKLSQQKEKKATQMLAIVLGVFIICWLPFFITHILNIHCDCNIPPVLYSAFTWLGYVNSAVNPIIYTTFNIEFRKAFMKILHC
- protocol: biochemical
- Type: biochemical
- particulars: a2 A50 / D2 A50
Specificity Ratio (a2 A50/D2 A50) values for the compounds below.
I'd appreciate a reply containing only the number, no unit.

// solved cases for Specificity Ratio (a2 A50/D2 A50) follow
compound="CCCN(CCC)C1CCc2c(O)cccc2C1 (centres unmarked) [Example 39, 5-hydroxy-2-(di-n-propyl)aminotetralin, reference compound]" result=120
compound="CCCN(CCCOC)[C@H]1CCc2c(O)cccc2C1 [Example 41, reference compound]" result=257

Alright, here's another compound for you.
Challenge: State the recorded Specificity Ratio (a2 A50/D2 A50) for this entry: CCCN(CC1CCOC1)[C@H]1CCc2c(O)cccc2C1.Cl (some centres unmarked)
Response given: 282
